System: HT29 colon
EXPERIMENTAL DETAILS: NCI-60 one-dose screen, 48 h (100 = growth as untreated, 0 = no growth, -100 = all killed)
TEST CONDITIONS: 10 µM unless noted
Procedure: Growth inhibition of the HT29 human tumor cell line is measured as a screen for anti-cancer activity. Cells are grown in 96 well plates and exposed to the test compound for 48 hours. Compounds are tested at a single concentration, which is 10^-5 M for most compounds. The reported endpoint is percent growth (GI% or GIPRCNT), where numbers from 0 - 100% represent growth inhibition, and numbers from -100% - 0 represent cell death. For example, a value of 40 represents 60% growth inhibition. […]
About 83,000 compounds went through this panel and 20% of them were active in at least one assay; those are over-represented in the sample as a whole.
Rule: growth of 10% or more gives yes; anything lower gives no.

Illustrative cases are given below, each with its answer.
Is it the case that CC(=O)O[C@H]1CC[C@@]2(C)C(=CC[C@H]3[C@@H]4C[C@@H](N5CC5)[C@H](C(C)=O)[C@@]4(C)CC[C@@H]32)C1 has growth reaching or exceeding 10%?
yes

Check if growth >= 10% (inclusive). Item: CN1CCCCC1C(C)(O)c1ccccc1 (stereo not given)
yes

Evaluate CC1(C)N=C(N)N=C(N)N1c1ccc(CCC(=O)Nc2ccc(S(=O)(=O)F)cc2)c(Cl)c1 : growth at minimum 10%?
yes

Please tell me: is the molecule CC(=O)[C@H]1CC[C@H]2[C@@H]3CC[C@H]4C[C@H](N)CC[C@]4(C)[C@H]3CC[C@]12C at or over 10% in terms of growth?
yes

***
// inclusive: growth at least 10%? input: COc1ccc(/C=C\c2cc(OC)c(OC)c(OC)c2)cc1OCC(=O)Nc1nc2ccc(OC(F)(F)F)cc2s1
yes

Decide: growth of O=C1C=C(N2C3C4CCC(C4)C32)C(=O)C=C1c1ccccc1 (stereo not given) >= 10%?
yes

hey, is growth for this one >= 10%? CNCc1cccnc1
yes

State whether the measured growth reaches 10%, counting equality as reaching it, for COC(=O)CC[C@H](Cc1ccccc1)NC(=O)c1csc([C@@H](C[C@H](C(C)C)N(C)C(=O)[C@@H](NC(=O)[C@H]2CCCCN2C)C(C)C)OC(C)=O)n1
no

Please tell me: is the molecule CCCCCCCCCCCCCCCCCCOc1ccccc1COP(=O)(O)OOCC[N+](C)(C)C at or over 10% in terms of growth?
no

Tell me whether growth is at least 10% here: Cc1ccc(S(=O)(=O)C(Cl)(Cl)Cl)cc1
yes

Quick check, growth >= 10%? CC[C@H](C)[C@H](NC(=O)[C@H]1CCCCN1C)C(=O)N(C)[C@H](C[C@@H](OC(C)=O)c1cccc(C(=O)N[C@@H](Cc2ccccc2)C[C@H](C)C(=O)O)n1)C(C)C
no

# bool: growth of CCn1cnc2c(Nc3cccc(Cl)c3)nc(N[C@@H]3CCCC[C@@H]3N)nc21 >= 10%
no

Could you verify whether the entry COC(=O)[C@@H](C)C[C@H](Cc1ccccc1)NC(=O)c1nc([C@@H](C[C@H](C(C)C)N(C)C(=O)[C@@H](NC(=O)[C@H]2C[C@H](O)CCN2C)C(C)C)OC(C)=O)sc1C(C)C shows growth of no less than 10%?
no
